Test system: MCF7
PROTOCOL_NOTES: Antiproliferative activity against human MCF7 cells by CCK8 assay
Format: functional, cell-based
pIC50: −log10 of the molar value.
Everything with pIC50 lower than 5 is criterion not met; everything else, including exactly 5, is criterion met.

Asked: # bool: pIC50 of O=C(Nc1nc2ccc(NC(=O)C3CCN(Cc4ccccc4)CC3)cc2s1)c1ccc(F)cc1Cl >= 5
Given back: criterion not met

Asked: # bool: pIC50 of CCCc1ccc(C(=O)Nc2nc3ccc(NC(=O)C4CCN(Cc5ccccc5)CC4)cc3s2)cc1 >= 5
Given back: criterion met

Asked: # bool: pIC50 of O=C(Nc1nc2ccc(NC(=O)C3CCN(Cc4ccccc4)CC3)cc2s1)c1cccs1 >= 5
Given back: criterion met

Asked: # bool: pIC50 of O=C(Nc1nc2ccc(NC(=O)C3CCN(Cc4ccccc4)CC3)cc2s1)c1ccc2c(c1)OCO2 >= 5
Given back: criterion met

Asked: # bool: pIC50 of O=C(Nc1nc2ccc(NC(=O)C3CCN(Cc4ccccc4)CC3)cc2s1)c1ccccc1 >= 5
Given back: criterion met

Asked: # bool: pIC50 of CCc1ccc(C(=O)Nc2nc3ccc(NC(=O)C4CCN(Cc5ccccc5)CC4)cc3s2)cc1 >= 5
Given back: criterion met

Asked: # bool: pIC50 of Nc1ccc(SCC(=O)Nc2ccc3nc(NC(=O)c4ccc(C(F)(F)F)cc4)sc3c2)cc1 >= 5
Given back: criterion not met

====

Hi there, I'd appreciate the recorded pIC50 for every entry that follows.
Tested on: KYSE-30
PROTOCOL_NOTES: Antiproliferative activity against human KYSE-30 cells by CCK8 assay
Format: functional, cell-based
Give bare numbers, as −log10 of the molar value.

COMPOUND | pIC50
O=C(Nc1nc2ccc(NC(=O)C3CCN(Cc4ccccc4)CC3)cc2s1)c1sccc1F | 5.69

Lab note: each compound below needs its pIC50 filled in.
1. N#Cc1ccc(C(=O)Nc2nc3ccc(NC(=O)C4CCN(Cc5ccccc5)CC4)cc3s2)cc1
2. O=C(Nc1nc2ccc(NC(=O)C3CCN(Cc4ccccc4)CC3)cc2s1)c1cccnc1
3. O=C(Nc1nc2ccc(NC(=O)C3CCN(Cc4ccccc4)CC3)cc2s1)c1ccc2c(c1)OCO2
4. COc1cc(C(=O)Nc2nc3ccc(NC(=O)C4CCN(Cc5ccccc5)CC4)cc3s2)cc(OC)c1OC

Given back:
[5.85, 4.71, 5.88, 5.97]

====

Tested on: KYSE-30
PROTOCOL_NOTES: Antiproliferative activity against human KYSE-30 cells by CCK8 assay
Format: functional, cell-based
READOUT_LABEL: pIC50
One number for each entry, as −log10 of the molar value.

Known results for compounds:
COMPOUND | VALUE_MEASURED
NS(=O)(=O)OC[C@@H]1C[C@@H](n2ccc3c(N[C@H]4CCc5ccccc54)ncnc32)C[C@@H]1O | 5.43
O=C(Nc1nc2ccc(NC(=O)C3CCN(Cc4ccccc4)CC3)cc2s1)c1ccc(C(F)(F)F)cc1 | 5.90
O=C(Nc1nc2ccc(NC(=O)C3CCN(Cc4ccccc4)CC3)cc2s1)c1cccc(F)c1 | 5.77
O=C(Nc1nc2ccc(NC(=O)C3CCN(Cc4ccccc4)CC3)cc2s1)c1ccc(-c2ccccc2)cc1 | 5.54
CCCc1ccc(C(=O)Nc2nc3ccc(NC(=O)C4CCN(Cc5ccccc5)CC4)cc3s2)cc1 | 6.04
O=C(Nc1ccc2nc(NC(=O)C3COc4ccccc4O3)sc2c1)C1CCN(Cc2ccccc2)CC1 (stereo not drawn) | 4.86

Lab note: each compound below needs its pIC50 filled in.
1. CCc1ccc(C(=O)Nc2nc3ccc(NC(=O)C4CCN(Cc5ccccc5)CC4)cc3s2)cc1
2. C/C=C/C(=O)Nc1nc2ccc(NC(=O)C3CCN(Cc4ccccc4)CC3)cc2s1
3. O=C(Nc1nc2ccc(NC(=O)C3CCN(Cc4ccccc4)CC3)cc2s1)c1ccc2ccccc2c1
4. O=C(Nc1nc2ccc(NC(=O)C3CCN(Cc4ccccc4)CC3)cc2s1)c1ccco1
5. Nc1ccc(SCC(=O)Nc2ccc3nc(NC(=O)c4ccc(C(F)(F)F)cc4)sc3c2)cc1
6. O=C(Nc1nc2ccc(NC(=O)C3CCN(Cc4ccccc4)CC3)cc2s1)c1ccc(F)c(F)c1
7. O=C(Nc1nc2ccc(NC(=O)C3CCN(Cc4ccccc4)CC3)cc2s1)c1cccs1

Given back:
[6.19, 4.75, 5.52, 5.13, 4.76, 5.74, 5.79]

Values were extracted from ChEMBL document CHEMBL5625268.
